System: Staphylococcus aureus
Test: Antibacterial activity against clinical isolates of Staphylococcus aureus DM4001R after 24 hrs by […]
Assay type: functional
Measurement Name: MIC (µg/mL)

Structure Smiles String | Measurement Name | Output Unit | Qualifier Sign | Observed
COc1c(OCCCCN2CCCCC2)cc2oc3cc(OCCCCN4CCCCC4)c(CC=C(C)C)c(O)c3c(=O)c2c1CC=C(C)C | MIC | µg/mL | = | 0.78
CCCN(CCC)CCCCOc1cc2oc3cc(OCCCCN(CCC)CCC)c(OC)c(CC=C(C)C)c3c(=O)c2c(O)c1CC=C(C)C | MIC | µg/mL | = | 25
CCN1CCN(CCCCOc2cc3oc4cc(OCCCCN5CCN(CC)CC5)c(OC)c(CC=C(C)C)c4c(=O)c3c(O)c2CC=C(C)C)CC1 | MIC | µg/mL | = | 25
CCCCCCN(C)CCCCOc1cc2oc3cc(OCCCCN(C)CCCCCC)c(OC)c(CC=C(C)C)c3c(=O)c2c(O)c1CC=C(C)C | MIC | µg/mL | = | 50
COc1c(OCCCCI)cc2oc3cc(OCCCCI)c(CC=C(C)C)c(OCCCCI)c3c(=O)c2c1CC=C(C)C | MIC | µg/mL | > | 50
COc1c(OCCCCn2cncn2)cc2oc3cc(OCCCCn4cncn4)c(CC=C(C)C)c(O)c3c(=O)c2c1CC=C(C)C | MIC | µg/mL | > | 50
COc1c(OCCCCN2CCN(CCN(C)C)CC2)cc2oc3cc(OCCCCN4CCN(CCN(C)C)CC4)c(CC=C(C)C)c(O)c3c(=O)c2c1CC=C(C)C | MIC | µg/mL | = | 6.25
COc1c(OCCCCN2CCC(O)CC2)cc2oc3cc(OCCCCN4CCC(O)CC4)c(CC=C(C)C)c(O)c3c(=O)c2c1CC=C(C)C | MIC | µg/mL | = | 6.25
CCN(CCCCOc1cc2oc3cc(OCCCCN(CC)C(C)C)c(OC)c(CC=C(C)C)c3c(=O)c2c(O)c1CC=C(C)C)C(C)C | MIC | µg/mL | = | 25
COc1c(OCCCCN(C)C)cc2oc3cc(OCCCCN(C)C)c(CC=C(C)C)c(O)c3c(=O)c2c1CC=C(C)C | MIC | µg/mL | = | 3.12
CCN(CC)CCCCCOc1cc2oc3cc(OCCCCCN(CC)CC)c(OC)c(CC=C(C)C)c3c(=O)c2c(O)c1CC=C(C)C | MIC | µg/mL | = | 1.56
CCN(CC)CCCCOc1cc2oc3cc(OCCCCN(CC)CC)c(OC)c(CC=C(C)C)c3c(=O)c2c(OCCCCN(CC)CC)c1CC=C(C)C | MIC | µg/mL | = | 12.5
CCCCCN(C)CCCCOc1cc2oc3cc(OCCCCN(C)CCCCC)c(OC)c(CC=C(C)C)c3c(=O)c2c(O)c1CC=C(C)C | MIC | µg/mL | = | 25
CCCCN(C)CCCCOc1cc2oc3cc(OCCCCN(C)CCCC)c(OC)c(CC=C(C)C)c3c(=O)c2c(O)c1CC=C(C)C | MIC | µg/mL | = | 50
COc1c(OCCCCn2cccn2)cc2oc3cc(OCCCCn4cccn4)c(CC=C(C)C)c(O)c3c(=O)c2c1CC=C(C)C | MIC | µg/mL | > | 50
